B1: Twister Ribozyme (parent)
chain: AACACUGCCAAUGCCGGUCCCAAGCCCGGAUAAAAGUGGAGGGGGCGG

Variants of: B1
protocol.details: self-cleavage, relative activity (ratio to wild type); higher = more cleavage; co-transcriptional
# binning rule on self-cleavage: lowest (below 0.2), middle (0.2 to below 0.5), highest (0.5 or more)

Hey, which category is C14U A34C in, do you know?
middle

Lab note: sort G16A A40U into the matching self-cleavage band.
lowest

Which band does G28A C46U fall in?
highest

Looking at A34U G43A , which class would you pick?
middle

Exam item: assign A32C A34G to the correct category.
highest

Using the reported self-cleavage, which band applies to G13U G36A ?
lowest

Hi, small favor: classify A23C G28U by its self-cleavage when you get a moment.
lowest

Tag the class for C20A C25G
lowest

Could you tell me which band A35C C46U belongs to?
highest

Band of A23G G45C ?
lowest

Bin? A10G C15G
lowest

Assign a category based on measured self-cleavage for C5A G29C and give only the class name.
middle

Consider U6C A35C . To which self-cleavage class does it belong?
middle
